Assay: Metabolic stability in human liver microsomes
Assay type: in vitro ADME
Conditions: HLMs, compound at 5 μM, calculated from t1/2, read-out: intrinsic clearance (CLint)
reported metric: CLint scaled at 5 μM (mL/min/kg)
Give the quantity in mL/min/kg, number only.

# CLint scaled at 5 μM lookup, item `CN(C)CCn1cnc2ccc(NS(=O)(=O)c3ccc4c(Cl)cccc4c3)cc21` 8

---

reported metric: melting point

These solved cases illustrate the format of a correct answer.
- CN(C)CCn1cnc2ccc(NS(=O)(=O)c3c(Cl)nc4sccn34)cc21 [Compound 13]: 139 to 141 °C
- CN(C)CCCn1cnc2c(C(=O)Nc3ccccc3)cccc21 [Compound S1]: 104 to 106 °C
- Cc1c(S(=O)(=O)Nc2ccc3ncn(CCN(C)C)c3c2)sc2ccccc12 [Compound 19]: 175 to 176 °C
- CN(C)CCn1cnc2cc(NS(=O)(=O)c3c(Cl)nc4sccn34)ccc21 [Compound 12]: 99 to 101 °C
- CN(C)CCn1cnc2c(NC(=O)c3ccccc3)cccc21 [Compound S7]: 109 to 112 °C
- CN(C)CCn1cnc2cc(NC(=O)c3ccccc3)ccc21 [Compound S8]: 113 to 115 °C
- CN(C)CCn1cnc2cccc(NS(=O)(=O)c3ccccc3)c21 [Compound S11]: 142 to 145 °C
- Cc1c(S(=O)(=O)Nc2ccc3ncn(CCN(C)C)c3c2)sc2ccc(Cl)cc12 [Compound 10]: 114 to 115 °C

Field request: melting point | item: CN(C)CCn1cnc2c(NS(=O)(=O)c3c(Cl)nc4sccn34)cccc21 [Compound 11] 71 to 74 °C

---

# melting point listing for each entry below

Record request: melting point value, item `CN(C)CCn1cnc2ccc(NS(=O)(=O)c3cccc4c(Cl)cccc34)cc21` 223 °C (dec.)

Repeat with `CN(C)CCCn1cnc2cc(C(=O)Nc3ccccc3)ccc21` 108 to 110 °C

What do you get for `CN(C)CCn1cnc2ccc(NC(=O)c3ccccc3)cc21` ? 115 to 117 °C

Now give it for `CN(C)CCn1cnc2c(NS(=O)(=O)c3ccccc3)cccc21` too. 121 to 123 °C

---

Each entry below carries its measured pKi, system: UniProt P50406.
By convention, pKi is the negative base-10 log of a molar concentration.

For orientation, consider the following solved cases.
- CN(C)CCn1cnc2ccc(NS(=O)(=O)c3ccc4c(Cl)cccc4c3)cc21: 8.05
- CN(C)CCn1cnc2c(NS(=O)(=O)c3ccccc3)cccc21: 6.61
- Cc1c(S(=O)(=O)Nc2ccc3ncn(CCN(C)C)c3c2)sc2ccc(Br)cc12: 7.43

// lookup pKi for `CN(C)CCn1cnc2cc(NS(=O)(=O)c3c(Cl)nc4sccn34)ccc21` 7.48

Moving on to `CN(C)CCn1cnc2ccc(NS(=O)(=O)c3ccccc3)cc21` 6.70

---

reported metric: melting point

* CN(C)CCn1cnc2ccc(NS(=O)(=O)c3ccc4cc(Cl)ccc4c3)cc21 | 181 °C (dec.)
* CN(C)CCn1cnc2cc(NS(=O)(=O)c3ccccc3)ccc21 | 178 to 180 °C
* Cc1c(S(=O)(=O)Nc2cccc3c2ncn3CCN(C)C)sc2ccc(Cl)cc12 | 90 to 93 °C
* CN(C)CCn1cnc2ccc(NS(=O)(=O)c3ccc4ccccc4c3)cc21 | 207 to 208 °C

Name the recorded melting point for `CN(C)CCn1cnc2cccc(NC(=O)c3ccccc3)c21` . 98 to 101 °C

Ok, now `CN(C)CCn1cnc2cc(NS(=O)(=O)c3ccc4c(Cl)cccc4c3)ccc21` 92 to 95 °C

---

So I've got Ki readings for human 5-HT6R (Homo sapiens), take a look.

Observe how each entry below is paired with its result.
- CN(C)CCn1cnc2ccc(NC(=O)c3ccccc3)cc21: > 500 nM
- CN(C)CCn1cnc2c(NC(=O)c3ccccc3)cccc21: > 500 nM
- CN(C)CCn1cnc2cccc(NS(=O)(=O)c3ccccc3)c21: > 500 nM
- CN(C)CCn1cnc2cc(NC(=O)c3ccccc3)ccc21: > 500 nM

# ---- query compound ----
Enter reported Ki observed with human 5-HT6R (Homo sapiens) for `CN(C)CCCn1cnc2cc(C(=O)Nc3ccccc3)ccc21` > 500 nM
